test: NCI Yeast Anticancer Drug Screen. Data for the bub3 strain (AID 167); conditions: S. cerevisiae bub3 mutant strain, at 50.0 µM, active compounds read high
About 79,000 compounds went through this panel and 15% of them were active in at least one assay; those are over-represented in the sample as a whole.
Measured Attribute: growth inhibition (%)
Report the value in % with no unit label.

CCCCCCCCCCCCCCCCCC(=O)[O][Al][O]C(C)C	-19.5
NC(=O)C(N)Cc1ccc(OCc2ccccc2)c(OCc2ccccc2)c1 (centres undefined)	2.45

Exam item: Name the recorded growth inhibition for "COc1cc2cccnc2c2[nH]c(=O)c3c(c12)CCC3" .
Marked response: 7.2

Exam item: Name the recorded growth inhibition for "CC(C)(C)OC(=O)N/N=C(/N)Cc1ccc(Cl)cc1" .
Marked response: -14.2

Exam item: Name the recorded growth inhibition for "NNc1cn[nH]c(=O)c1Cl" .
Marked response: -3.85

Exam item: Name the recorded growth inhibition for "C(=C/c1ccc(/C=C/C=C\c2ccccc2)cc1)/C=C/c1ccccc1" .
Marked response: -2.1

Exam item: Name the recorded growth inhibition for "CC(=O)OCCn1c2ccccc2nc2cc3c(cc21)c(Cl)c(=O)c1ccccc13" .
Marked response: -1.6

Exam item: Name the recorded growth inhibition for O=C(SCc1ccccc1)C(O)c1ccccc1 (centres undefined) .
Marked response: 19.3

Exam item: Name the recorded growth inhibition for "Brc1ccc(C=C2c3ccccc3-c3ccccc32)cc1" .
Marked response: 7.65

Exam item: Name the recorded growth inhibition for CCCCCCCCCCCCCCCCCC(=O)OC(C(O)C=O)C(O)C(O)CO (centres undefined) .
Marked response: -5.55

Exam item: Name the recorded growth inhibition for CCSCC(N)C(=O)O (centres undefined) .
Marked response: 3.35

----------
assay: NCI Yeast Anticancer Drug Screen. Data for the cln2 rad14 strain (AID 165);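 note: 0% = growth equal to vehicle treated cultures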; conditions: S. cerevisiae cln2 rad14 strain, at 50.0 µM, active compounds read high
Compounds without any hit were thinned out: in the full panel of roughly 79,000, 15% have a hit.
Measured Attribute: growth inhibition (%)
Report the value in % with no unit label.

Cc1ccccc1SCC(N)=O	-12.1
O=C1C=CC(=NN=c2c3ccccc3oc3ccccc23)C=C1	-20.9
CCC(O)(c1ccccc1)C(O)c1ccccc1 (centres undefined)	3.8
CC(C)(C)OC(=O)C(N)Cc1ccccc1 (centres undefined)	0.35

Exam item: Name the recorded growth inhibition for "COc1ccc(C(=O)c2ccccc2)c(O)c1OC" .
Marked response: -0.75

Exam item: Name the recorded growth inhibition for NC(=O)CC(N)C(=O)NC(Cc1ccccc1)C(=O)NC(Cc1ccccc1)NC(=O)C(Cc1c[nH]c2ccccc12)C(=O)O (centres undefined) .
Marked response: -13.2

Exam item: Name the recorded growth inhibition for "COc1cc2c(cc1OC)C(c1ccc([N+](=O)[O-])c(C)c1)=NCC2" .
Marked response: 15.3

----------
experiment: NCI Yeast Anticancer Drug Screen. Data for the mlh1 rad18 strain (AID 175); conditions: S. cerevisiae mlh1 rad18 strain growth inhibition; at 50.0 µM; active compounds read high
About 79,000 compounds went through this panel and 15% of them were active in at least one assay; those are over-represented in the sample as a whole.
Measured Attribute: growth inhibition (%)
Report the value in % with no unit label.

Exam item: Name the recorded growth inhibition for "O=C(Cc1ccccn1)c1cccnc1" .
Marked response: -4.25

Exam item: Name the recorded growth inhibition for "O=C(O)CC1(c2ccccc2)CCCCC1" .
Marked response: 2.3

Exam item: Name the recorded growth inhibition for "c1ccc(C2SCCCS2)cc1" .
Marked response: 18.4

Exam item: Name the recorded growth inhibition for "O=C1C(=O)N(C23CC4CC(CC(C4)C2)C3)C(=S)N1c1ccccc1" .
Marked response: -27.2

Exam item: Name the recorded growth inhibition for "COC(=O)[C@H]1C=C[C@@H](C)n2c(=O)c3cc4ccccc4cc3c(=O)n21" .
Marked response: -18.2

----------
Assay: NCI Yeast Anticancer Drug Screen. Data for the cln2 rad14 strain (AID 165);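 note: 0% = growth equal to vehicle treated cultures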
Conditions: S. cerevisiae cln2 rad14 strain, at 50.0 µM, active compounds read high
Method: Growth inhibition of yeast strains with defined genetic alterations is measured as a screen for potential anti-cancer activity. Selected strains with alterations in DNA damage repair or cell cycle control were exposed to compounds and growth inhibition was measured relative to vehicle treated controls. The strain used in this assay is cln2 rad14
Compounds without any hit were thinned out: in the full panel of roughly 79,000, 15% have a hit.
Measured Attribute: growth inhibition (%)
Report the value in % with no unit label.

Here are 5 molecules together with their reported answers.
C=CCc1cc(Br)ccc1O	11.1
CS(=O)(=O)CC(=O)c1ccc(Br)cc1	-12.8
CCCCCC1c2cc(O)ccc2OC1N1CCOCC1 (stereo unspecified)	48.6
CCc1cccc(C(C)CC)c1N=C(NC(=O)c1ccccc1C(=O)NC(=Nc1c(CC)cccc1C(C)CC)SC)SC (stereo unspecified)	6.3
O=C(O)c1sccc1Cc1ccsc1	-27.6

Exam item: Name the recorded growth inhibition for "O=C(c1ccccc1)c1ccc(OCCOc2ccc(C(=O)c3ccccc3)cc2)cc1" .
Marked response: -15.1

----------
Overview of reported growth inhibition across a group of compounds:
experiment: NCI Yeast Anticancer Drug Screen. Data for the rad50 strain (AID 155);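 note: 0% = growth of vehicle-only cultures of the same strain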; details: S. cerevisiae rad50 strain growth inhibition; at 50.0 µM; active compounds read high
This is part of a sample that, as a whole, favours compounds with a hit. Of some 79,000 tested, about 15% had one in any assay.
Report the value in % with no unit label.

CCOC(=O)c1c(C)n2c3c(cccc13)CCC2	23.4
C=Cc1cccc([N+](=O)[O-])c1	15.8
C/C(CC(=O)Nc1cc(C)ccc1C)=N/N=C(N)N	-24.6
O=C(NNc1ccccc1)C1C2CC3OC(=O)C1C3C2 (stereo not given)	54
COc1ccc(C(=O)/C=C/c2cccc3ccccc23)cc1	15.4
CCNC(=S)NCC	-11.2
CC(=O)Nc1nc2ncc(CN(C(C)=O)c3ccc(C(=O)O)cc3)nc2c(=O)[nH]1	-19.3
O=C(O)CNC(=O)c1cccc(Cl)c1	12.4

Exam item: Name the recorded growth inhibition for O=C(Cc1ccccc1)NN1C(=O)C(Cl)C1c1ccccc1 (stereo not given) .
Marked response: -10.3

Exam item: Name the recorded growth inhibition for CCC1CN2CCc3cc(OC)c(OC)cc3C2CC1O (stereo not given) .
Marked response: 1.3

Exam item: Name the recorded growth inhibition for CCC1(C)CC(C)(C)c2ccc(C)cc21 (stereo not given) .
Marked response: -0.8

Exam item: Name the recorded growth inhibition for "O=c1[nH]c(=S)[nH]c2[nH]c(=S)ncc12" .
Marked response: -26.8

Exam item: Name the recorded growth inhibition for "COC(=O)c1nc(=S)[nH]c(C(=O)OC)c1C(=O)c1cccc2ccccc12" .
Marked response: 8.6

----------
experiment: NCI Yeast Anticancer Drug Screen. Data for the mlh1 rad18 strain (AID 175); settings: S. cerevisiae mlh1 rad18 strain growth inhibition; at 50.0 µM; active compounds read high
The panel holds about 79,000 compounds, 15% with a hit somewhere; the sample as a whole holds those more often.
Measured Attribute: growth inhibition (%)
Report the value in % with no unit label.

Here are 8 compounds together with their reported answers.
CN1CCC(CO)CC1	-8.4
NC(=O)CC(NC(=O)C(F)(F)F)C(=O)O (configuration not stated)	-24.2
CC(=O)C(CCN(C)C)c1ccc2c(c1)CCc1ccccc1-2 (configuration not stated)	27.6
CC(CCC(=O)O)C1CCC2C3CCC4CCCCC4(C)C3CCC12C (configuration not stated)	49.5
CC1OC(c2ccccc2)OC1C (configuration not stated)	11.8
[Cl][Co][Cl].[NH-]CCC[NH-].[NH-]CCC[NH-]	16.7
c1ccc2cc3ccccc3cc2c1	3.7
COC(=O)c1nc(N)nc(C(=O)OC)c1C(=O)c1ccc(Cl)c(Cl)c1	10.6

Exam item: Name the recorded growth inhibition for NC(=O)C(N)Cc1ccc(OCc2ccccc2)c(OCc2ccccc2)c1 (configuration not stated) .
Marked response: 26.2

Exam item: Name the recorded growth inhibition for "CCCOC(=O)/C(C)=C\c1ccccc1" .
Marked response: 16.9

Exam item: Name the recorded growth inhibition for CCCC1OCC(O)C(C(O)C(=O)CN(Cc2ccccc2)Cc2ccccc2)O1 (configuration not stated) .
Marked response: 3.75

Exam item: Name the recorded growth inhibition for CC[N+](C)(CC)CCOC(=O)C(c1ccccc1)C(O)C1CC=CCC1 (configuration not stated) .
Marked response: 2.3

----------
Assay: NCI Yeast Anticancer Drug Screen. Data for the cln2 rad14 strain (AID 165);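 note: 0% = growth equal to vehicle treated cultures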
Details: S. cerevisiae cln2 rad14 strain, at 50.0 µM
Experimental: Growth inhibition of yeast strains with defined genetic alterations is measured as a screen for potential anti-cancer activity. Selected strains with alterations in DNA damage repair or cell cycle control were exposed to compounds and growth inhibition was measured relative to vehicle treated controls. The strain used in this assay is cln2 rad14
The panel holds about 79,000 compounds, 15% with a hit somewhere; the sample as a whole holds those more often. The source made the active and inactive calls. Cut-off read from the data, not from the text of the source: active = growth inhibition above about 70%; inactive = the rest.
In this exercise, the only acceptable responses are active, inactive

Examples with answers:
CONCc1ccc(C(=O)NC(C)C)cc1	inactive
C[n+]1c2ccccc2c(Oc2c3ccccc3[n+](C)c3ccccc23)c2ccccc21	inactive
OC(C/C(=N\Nc1ccccc1)c1ccc(Br)cc1)(C(F)(F)F)C(F)(F)F	active
CC(=N/N(C)c1ccccc1)/C(C)=N/N(C)c1ccccc1	inactive
NC(=O)SCC(=O)Nc1ccccc1O	inactive

Exam item: For this molecule, state the assay outcome: "ClCCCCCCCCCCl"
Marked response: inactive
